Give measured pKd for each item. Keep answers brief.
Molecular target: SARS-CoV-2 S1 domain (SARS-CoV-2, UniProt P0DTC2 14-685)
Experiment: ELISA: IgG titrated on plate-bound S1, absorbance at 450 nm
One number for each entry, as −log10 of the molar value.

Return reported pKd values for all items listed beneath this line.
1. RD10 (antibody, V domains shown) VH: EVQLLESGGGLVQPGGSLRLSCAASGFTFSDYAMSWVRQAPGKGLEWVSAIYPGGGSTYYADSVKGRFTISRDNSKNTLYLQMNSLRAEDTAVYYCARNLFGFDYWGQGTLVTVSS VL: QSVLTQPPSASGTPGQRVTISCTGSSSNIGSNAVYWYQQLPGTAPKLLIYDDSNRPSGVPDRFSGSKSGTSASLAISGLRSEDEADYYCGSWDDSLSAYVFGGGTKLTVL
2. RB6 (antibody, V domains shown, also called K102.2) VH: EVQLLESGGGLVQPGGSLRLSCAASGFTFSSYDMSWVRQAPGKGLEWVSGISYSGGSTYYADSVKGRFTISRDNSKNTLYLQMNSLRAEDTAVYYCARDVNFVPLVTFDYWGQGTLVTVSS VL: QSVLTQPPSASGTPGQRVTLSCTGSSSNIGSNSVTWYQQLPGTAPKLLIYDDNQRPSGVPDRFSGSKSGTSASLAISGLRSEDEADYYCGTWDYSLSAYVFGGGTKLTVL
3. RG6 (antibody, V domains shown) VH: EVQLLESGGGLVQPGGSLRLSCAASGFTFSDYSMSWVRQAPGKGLEWVSGIYHSDGSKYYADSVKGRFTISRDNSKNTLYLQMNSLRAEDTAVYYCARFDPVFDYWGQGTLVTVSS VL: QSVLTQPPSASGTPGQRVTISCTGSSSNIGSNAVNWYQQLPGTAPKLLIYADSNRPSGVPDRFSGSKSGTSASLAISGLRSEDEADYYCGAWDASLSAYVFGGGTKLTVL

1. 9.50
2. 8.50
3. 9.66
